Hey, just so you know, these numbers are from ChEMBL document CHEMBL3774357.

# experiment: Oral bioavailability in monkey
# Type: ADME, organism-based, Macaca mulatta
# measurementContext: rhesus monkey, in vivo
propertyMeasured: bioavailability

Q) // bioavailability lookup, key: CNC(=O)c1ccc2[nH]nc(Cc3ccc4c(cnn4C)c3)c2c1
A) 26%

---

# experiment: Volume of distribution at steady state in dog
# Assay type: ADME, organism-based, Canis lupus familiaris
# measurementContext: in vivo, read-out: Vdss
propertyMeasured: Vd (L/kg)
Just the number in L/kg, nothing appended.

Q) # lookup: Vd of CNC(=O)c1ccc2[nH]nc(Cc3ccc4c(cnn4C)c3)c2c1
A) 1.8

---

# experiment: Solubility of the compound in PBS at pH 7.4
# Format: physicochemical
propertyMeasured: solubility (µg/mL)
Use µg/mL as the unit, but write only the number.

Q) Form field: reported solubility of CNC(=O)c1ccc2[nH]nc(Cc3ccc4c(cnn4C)c3)c2c1
A) 6

---

Each record here notes measured solubility thermodynamic.
# experiment: Thermodynamic solubility of the compound
# Assay type: physicochemical
# measurementContext: read-out: Therm_solubility
Quick reminder: number only, in µg/mL, skip the unit.

# annotated cases, reported solubility thermodynamic shown
CNC(=O)c1ccc2[nH]nc(Cc3ccc4c(cnn4C)c3)c2c1 ... 6
CNC(=O)c1ccc2[nH]nc(Cc3ccc(-c4cnn(C)c4)cc3)c2c1 ... 6

Q) Recorded solubility thermodynamic of CNC(=O)c1ccc2[nH]nc(Cc3ccc(-c4cnn(CC(C)(C)O)c4)cc3)c2c1 , please.
A) 26
